system: HOP-92 NSCLC; assay: NCI tumour cell line growth inhibition, 48 h
propertyMeasured: GI50

| molecule | measuredOn | observedMeasurement |
| --- | --- | --- |
| CN(C)CC[PH+](c1ccccc1)c1ccccc1.CN(C)CC[PH+](c1ccccc1)c1ccccc1.[Cl-].[Pd+2] | HOP-92 NSCLC | > 100 µM |
| C=C(C)[C@@H]1CC[C@]2(C)[C@H](CC=C3[C@@H]4CC(C)(C)CC[C@]4(C(N)=O)CC[C@]32C)[C@@]1(C)CCC#N | HOP-92 NSCLC | 2.37 µM |
| CCC[CH2][Sn]([Cl])([CH2]CCC)[CH2]CCC | HOP-92 NSCLC | 0.0452 µM |
| COc1cc(-n2cc(-c3ccc(F)cc3)[nH]c2=O)cc(OC)c1OC | HOP-92 NSCLC | > 100 µM |
| O=C(Cn1c[n+](CC(=O)c2ccc(-c3ccccc3)cc2)c2ccccc21)Nc1cccc2cccnc12 | HOP-92 NSCLC | 0.677 µM |
| O=C1C=CC(=O)c2cc3cc(CBr)ccc3cc21 | HOP-92 NSCLC | 3.18 µM |
| COc1ccc(-c2nc3ccc(-c4nc5ccc(N6CCN(c7ccccc7)CC6)cc5[nH]4)cc3[nH]2)cc1OC | HOP-92 NSCLC | 1.28 µM |
| COc1cc2c(cc1OCCCNC(=O)c1cccc3c(=O)c4ccccc4[nH]c13)N=C[C@@H]1CCCN1C2=O | HOP-92 NSCLC | < 0.01 µM |
| CCC(/C=C/C1OC(=O)C=CC1C)=C\C(C)C/C=C/C(C)=C/C(C)C(=O)C(C)C(O)C(C)C/C(C)=C/C(=O)O (stereo not given) | HOP-92 NSCLC | 5.32 µM |
| Nc1c(C(=O)Nc2ccncc2)sc2nc3c(cc12)CCCCCCCC3 | HOP-92 NSCLC | 0.761 µM |

* * *

system: ACHN renal; assay: NCI tumour cell line growth inhibition, 48 h

| compound | measuredOn | TGI |
| --- | --- | --- |
| NCc1ccccc1-c1c2nc(c(-c3ccccc3CN)c3ccc([nH]3)c(-c3ccccc3CN)c3nc(c(-c4ccccc4CN)c4ccc1[nH]4)C=C3)C=C2 | ACHN renal | 35.3 µM |
| CC(=O)Oc1c2c(c(O)c3ccccc13)C(n1cnc3c(ncn3C3OC(CO)C4OC(C)(C)OC43)c1=N)CCC2 (centres undefined) | ACHN renal | 30.9 µM |
| Cc1[nH]nc(C(F)(F)F)c1N=NN1CCOCC1 | ACHN renal | 17.7 µM |
| CCCNC(=S)NNC(=O)CSc1nc(-c2ccccc2)c(-c2ccccc2)[nH]1 | ACHN renal | > 100 µM |
| OCC1OC(c2nc(C3=NCCCN3)cs2)C(O)C1O (centres undefined) | ACHN renal | > 100 µM |
| COc1ccc(Nc2nnc(-c3cc(O)ccc3O)s2)cc1 | ACHN renal | > 50 µM |
| COc1cc2c(cc1OCCCNC(=O)c1cccc3c(=O)c4ccccc4[nH]c13)N=C[C@@H]1CCCN1C2=O | ACHN renal | > 100 µM |
| Nc1ncnc2c1ncn2[C@@H]1C[C@@H]1CO | ACHN renal | > 100 µM |
| O=c1c(/C=C/c2c(O)ccc3ccccc23)nnc2sc(-c3cccc(Br)c3)nn12 | ACHN renal | > 100 µM |

* * *

tested on: MDA-N; test: NCI tumour cell line growth inhibition, 48 h

| compound | TGI |
| --- | --- |
| CC(O)C1(CNc2cc(Cl)nc(N)n2)CCC1 (stereo not given) | > 100 µM |
| CC(C)=CC[C@]12CCN[C@H]1N(S(=O)(=O)c1ccccc1)c1ccccc12 | 29.1 µM |
| CSc1ncnc2c1ncn2CCC(=O)OC(C)(C)C | > 100 µM |
| CN(C)CC[PH+](c1ccccc1)c1ccccc1.CN(C)CC[PH+](c1ccccc1)c1ccccc1.[Cl-].[Pd+2] | > 100 µM |
| CC12CC(c3ccccc3O1)C(C(=O)Nc1ccc(Cl)cc1Cl)C(=O)N2 (stereo not given) | > 100 µM |

* * *

test system: RPMI-8226 leukemia; assay: NCI tumour cell line growth inhibition, 48 h

| compound | TGI |
| --- | --- |
| Nc1nc(N)c2c3c(cnc2n1)CC(c1ccccc1)CC3 (stereo not drawn) | > 100 µM |
| COc1cc2c(C)cc(O)cc2c2cc(O)c(C)cc12 | 6.64 µM |
| CC#CCOC(=O)c1ccccc1OC(C)=O | > 100 µM |

* * *

system: UACC-62 melanoma; assay: NCI tumour cell line growth inhibition, 48 h
GI50 values, listed per item
propertyMeasured: GI50

| compound | observedMeasurement |
| --- | --- |
| COc1cc(-n2cc(-c3ccc(F)cc3)[nH]c2=O)cc(OC)c1OC | > 100 µM |
| O=C(N[C@@H](c1ccc(Cl)c(Cl)c1)C1CNC1)c1ccc2cnccc2c1 | 0.171 µM |
| C#C[C@]1(O)CCC2C3CCc4cc(O)ccc4C3CC[C@@]21C (stereo partly drawn) | 4.12 µM |
| Nc1c(C(=O)Nc2ccncc2)sc2nc3c(cc12)CCCCCCCC3 | 0.885 µM |
| COc1ccc(/C=C2/N=C(c3ccccc3)N(c3c(C)n(C)n(-c4ccccc4)c3=O)C2=O)cc1OC | > 100 µM |
| CCn1c2ccccc2c2cc(NC(=O)Nc3ccc([N+](=O)[O-])cc3C)ccc21 | 5.76 µM |
| C=CCCCCOc1ccccc1-c1cnc(OCCCCC=C)n1C | 3.93 µM |
| O=C(CC1(O)C(=O)N(Cc2ccccc2)c2ccc(F)cc21)c1ccc(C(=O)NCC2CCC3(CC2)OOC2(CCCCC2)OO3)cc1 (stereo not drawn) | 2.18 µM |
| Cn1cc(-c2csc(-c3c[nH]c4ccc(F)cc34)n2)c2cnccc21 | 1.83 µM |
| Clc1ccc2[nH]cc(-c3nnnn3-c3ccccc3)c2c1 | 11.2 µM |
| O=C(c1ccccc1)c1cc2ccccc2o1 | > 100 µM |
| Cn1cc(C2=C(c3cn(CCCCO)c4ccccc34)C(=O)NC2=O)c2ccccc21 | 9.07 µM |
| CCSc1ncnc2c1ncn2C1OC(CO)C(O)C1O (stereo not drawn) | 1.48 µM |

* * *

test system: DU-145 prostate; experiment: NCI tumour cell line growth inhibition, 48 h
propertyMeasured: GI50

| smilesString | measuredOn | propertyMeasured | observedMeasurement |
| --- | --- | --- | --- |
| CC[C@H]1[C@@H]2C=C[C@@H]3[C@H]4C/C=C\C(=O)NCCC[C@@H]5NC(=O)/C(=C(O)/C=C/[C@@H]4C[C@@H]3[C@H]2C[C@H]1C)C5=O | DU-145 prostate | GI50 | 715 nM |
| COc1cc2c(cc1OCCCNC(=O)c1cccc3c(=O)c4ccccc4[nH]c13)N=C[C@@H]1CCCN1C2=O | DU-145 prostate | GI50 | < 10 nM |
| CCn1c2ccccc2c2cc(NC(=O)Nc3ccc([N+](=O)[O-])cc3C)ccc21 | DU-145 prostate | GI50 | 5380 nM |
| Nc1nc(/C=C\c2ccc([N+](=O)[O-])s2)nc(N2CCCC2)n1 | DU-145 prostate | GI50 | 2470 nM |

* * *

system: TK-10 renal; test: NCI tumour cell line growth inhibition, 48 h

| compound | measuredOn | TGI |
| --- | --- | --- |
| COc1ccc(Nc2nnc(-c3cc(O)ccc3O)s2)cc1 | TK-10 renal | > 50 µM |
| Nc1nc(N)c2c3c(cnc2n1)CC(c1ccccc1)CC3 (stereo unspecified) | TK-10 renal | 97.9 µM |
| COc1ccc(/C=C2\N=C(SC)N(CN3CCOCC3)C2=O)cc1 | TK-10 renal | > 100 µM |
| Cc1ccc(NC(=O)CCc2cc(C(C)(C)C)nc(=S)[nH]2)cc1C | TK-10 renal | > 100 µM |
| CC1(CCOCc2ccccc2)NC(=O)NC1=O (stereo unspecified) | TK-10 renal | > 100 µM |
| CN(C)CCC(=O)c1ccccc1 | TK-10 renal | > 68.4 µM |

* * *

tested on: HL-60(TB) leukemia; test: NCI tumour cell line growth inhibition, 48 h
TGI values, listed per item
propertyMeasured: TGI (µM)

| molecule | measuredOn | relationSymbol | observedMeasurement |
| --- | --- | --- | --- |
| Cn1cc(C2=C(c3cn(CCCCO)c4ccccc34)C(=O)NC2=O)c2ccccc21 | HL-60(TB) leukemia | = | 16.3 |
| COc1cc2c3c(n(C)c(=O)c2cc1OC)-c1cc2c(cc1/C3=C\CN)OCO2 | HL-60(TB) leukemia | > | 100 |
| CC(=O)c1[nH]c(NCc2ccccc2)c(C(=S)Nc2ccccc2)c1N | HL-60(TB) leukemia | = | 35.3 |
| NNC(=O)c1n[nH]nc1C(=O)NN | HL-60(TB) leukemia | > | 100 |
| CN(CC(=O)O)c1ncc2c(n1)CCCC2 | HL-60(TB) leukemia | > | 100 |
| O=C(CC1(O)C(=O)N(Cc2ccccc2)c2ccc(F)cc21)c1ccc(C(=O)NCC2CCC3(CC2)OOC2(CCCCC2)OO3)cc1 (stereo not given) | HL-60(TB) leukemia | = | 0.999 |
| COc1ccc(-c2nn(-c3ccc(NC(=O)c4ccc(Cl)c(Cl)c4)cc3)cc2-c2ccncc2)cc1Cl | HL-60(TB) leukemia | > | 50 |
| COc1cccc(C2=NC(C(C)C)CO2)c1 (stereo not given) | HL-60(TB) leukemia | > | 100 |
| O=C(Nc1nc(C23CC4CC(CC(C4)C2)C3)cs1)c1cc2ccc(O)cc2oc1=O | HL-60(TB) leukemia | = | 34.6 |
| COc1ccc(/C=C2/N=C(c3ccccc3)N(c3c(C)n(C)n(-c4ccccc4)c3=O)C2=O)cc1OC | HL-60(TB) leukemia | > | 100 |

Each recorded value in this set is attributed to PubChem BioAssay (NCI).
